- System: rat JNK1 mRNA
- METHOD DESCRIPTION: Northern assay of rat JNK1 (p54?) mRNA in A10 aortic smooth muscle cells
- Assay type: cell-based
- MEASUREMENT PARAMETERS: rat JNK1 mRNA, A10 cells, oligonucleotides targeted to rat JNK1
Strand notation (5' to 3'): a small letter for the sugar, then the base; units joined by * are phosphorothioate-linked, units joined directly phosphodiester-linked; [ ] holds rarer units or linkages, { } end groups; capitals alone tell only the bases. e = 2'-O-(2-methoxyethyl) (MOE); [5mC] = 5-methylcytosine; d = 2'-deoxy (DNA)
The substances listed here are annotated with their % EXPRESSION JNK1.
VALUE TYPE: % EXPRESSION JNK1

{"SUBSTANCE": "21859 (DNA e[5mC]eTe[5mC]eAeT*dG*dA*dT*dG*dG*d[5mC]*dA*dA*dG*d[5mC]*eAeAeTeTeA) [compound 21859]", "MEASUREMENT": "5%"}
{"SUBSTANCE": "21860 (DNA eTeGeTeTeG*dT*d[5mC]*dA*d[5mC]*dG*dT*dT*dT*dA*d[5mC]*eTeTe[5mC]eTeG; antisense) [compound 21860]", "MEASUREMENT": "8%"}
{"SUBSTANCE": "21862 (DNA e[5mC]eTeAeGeG*dG*dA*dT*dT*dT*d[5mC]*dT*dG*dT*dG*eGeTeGeTeG; antisense) [compound 21862]", "MEASUREMENT": "6%"}
{"SUBSTANCE": "21865 (DNA e[5mC]e[5mC]eAeTeT*dT*d[5mC]*dT*d[5mC]*d[5mC]*d[5mC]*dA*dT*dA*dA*eTeGe[5mC]eAe[5mC]; antisense) [compound 21865]", "MEASUREMENT": "5%"}
{"SUBSTANCE": "21857 (DNA e[5mC]eAeAe[5mC]eG*dT*d[5mC]*d[5mC]*d[5mC]*dG*d[5mC]*dG*d[5mC]*dT*d[5mC]*eGeGe[5mC]e[5mC]eG; antisense) [compound 21857]", "MEASUREMENT": "24%"}
{"SUBSTANCE": "21868 (DNA e[5mC]eAe[5mC]eTe[5mC]*d[5mC]*dT*d[5mC]*dT*dA*dT*dT*dG*dT*dG*eTeGe[5mC]eTe[5mC]; antisense) [compound 21868]", "MEASUREMENT": "15%"}
{"SUBSTANCE": "21866 (DNA eTeGeAeAeT*dT*d[5mC]*dA*dG*dG*dA*d[5mC]*dA*dA*dG*eGeTeGeTeT; antisense) [compound 21866]", "MEASUREMENT": "8%"}
{"SUBSTANCE": "21864 (DNA eTe[5mC]eGeTeT*d[5mC]*d[5mC]*dT*dG*d[5mC]*dA*dG*dT*d[5mC]*d[5mC]*eTeTeGe[5mC]e[5mC]; antisense) [compound 21864]", "MEASUREMENT": "8%"}
{"SUBSTANCE": "21870 (DNA e[5mC]e[5mC]eAeGeA*dG*dT*d[5mC]*dG*dG*dA*dT*d[5mC]*dT*dG*eTeGeGeAe[5mC]; antisense) [compound 21870]", "MEASUREMENT": "11%"}
{"SUBSTANCE": "21861 (DNA e[5mC]eGeGeTeA*dG*dG*d[5mC]*dT*d[5mC]*dG*d[5mC]*dT*dT*dA*eGe[5mC]eAeTeG; antisense) [compound 21861]", "MEASUREMENT": "6%"}
{"SUBSTANCE": "21863 (DNA e[5mC]eAeGe[5mC]eA*dG*dA*dG*dT*dG*dA*dA*dG*dG*dT*eGe[5mC]eTeTeG; antisense) [compound 21863]", "MEASUREMENT": "24%"}
{"SUBSTANCE": "21858 (DNA e[5mC]e[5mC]eTeGe[5mC]*dT*d[5mC]*dG*d[5mC]*dG*dG*d[5mC]*dT*d[5mC]*d[5mC]*eGe[5mC]eGeTeT; antisense) [compound 21858]", "MEASUREMENT": "8%"}
{"SUBSTANCE": "21867 (DNA eAeGe[5mC]eTeT*d[5mC]*dG*dT*d[5mC]*dT*dA*d[5mC]*dG*dG*dA*eGeAeTe[5mC]e[5mC]; antisense) [compound 21867]", "MEASUREMENT": "5%"}
{"SUBSTANCE": "21869 (DNA eGe[5mC]eTeGe[5mC]*dA*d[5mC]*d[5mC]*dT*dA*dA*dA*dG*dG*dA*eGeAe[5mC]eGeG; antisense) [compound 21869]", "MEASUREMENT": "30%"}

###

- Tested on: JNK1 mRNA
- METHOD DESCRIPTION: Northern assay of JNK1 mRNA expression in A549 cells
- Assay type: cell-based, human
- MEASUREMENT PARAMETERS: JNK1 mRNA, A549 cells, 400 nM oligonucleotide, relative to LIPOFECTIN-only control
% EXPRESSION by entry:

{"SUBSTANCE": "12549 (antisense CGTTCCTGCAGTCCTGGCCA; DNA, all phosphorothioate, methylation of C not given here) [compound 12549]", "UNIT TAG": "%", "% EXPRESSION": 28}
{"SUBSTANCE": "12551 (antisense CCCATAATGCACCCCACAGA; DNA, all phosphorothioate, methylation of C not given here) [compound 12551]", "UNIT TAG": "%", "% EXPRESSION": 52}
{"SUBSTANCE": "12553 (antisense TTTGGTGGTGGAGCTTCTGC; DNA, all phosphorothioate, methylation of C not given here) [compound 12553]", "UNIT TAG": "%", "% EXPRESSION": 25}
{"SUBSTANCE": "12539 (antisense CTCTCTGTAGGCCCGCTTGG; DNA, all phosphorothioate, methylation of C not given here) [compound 12539]", "UNIT TAG": "%", "% EXPRESSION": 9}
{"SUBSTANCE": "12557 (antisense CCACCCCCCGATGGCCCAAG; DNA, all phosphorothioate, methylation of C not given here) [compound 12557]", "UNIT TAG": "%", "% EXPRESSION": 29}
{"SUBSTANCE": "12556 (antisense AGGCCAAAGTCGGATCTGTT; DNA, all phosphorothioate, methylation of C not given here) [compound 12556]", "UNIT TAG": "%", "% EXPRESSION": 41}
{"SUBSTANCE": "12538 (antisense CCCGCTTGGCATGAGTCTGA; chemistry not fully specified) [compound 12538]", "UNIT TAG": "%", "% EXPRESSION": 33}
{"SUBSTANCE": "11978 (antisense ATTCTTTCCACTCTTCTATT; DNA, all phosphorothioate, methylation of C not given here) [compound 11978]", "UNIT TAG": "%", "% EXPRESSION": 85}
{"SUBSTANCE": "11987 (antisense CCATCCCTCCCACCCCCCGA; DNA, all phosphorothioate, methylation of C not given here) [compound 11987]", "UNIT TAG": "%", "% EXPRESSION": 47}
{"SUBSTANCE": "11988 (antisense ATCAATGACTAACCGACTCC; DNA, all phosphorothioate, methylation of C not given here) [compound 11988]", "UNIT TAG": "%", "% EXPRESSION": 78}
{"SUBSTANCE": "11985 (antisense TGCTGCTTCTAGACTGCTGT; DNA, all phosphorothioate, methylation of C not given here) [compound 11985]", "UNIT TAG": "%", "% EXPRESSION": 47}

###

- Tested on: JNK1 mRNA
- METHOD DESCRIPTION: Northern assay of JNK1 mRNA expression in A549 cells
- Type: cell-based, human
- MEASUREMENT PARAMETERS: JNK1 mRNA, t = 48 h; 300 nM for 20 hours then 200 nM for 4 hours
Strand notation (5' to 3'): a small letter for the sugar, then the base; units joined by * are phosphorothioate-linked, units joined directly phosphodiester-linked; [ ] holds rarer units or linkages, { } end groups; capitals alone tell only the bases. e = 2'-O-(2-methoxyethyl) (MOE); [5mC] = 5-methylcytosine; d = 2'-deoxy (DNA)
// NB: equality with 50% counts as -1; only RNA % Control strictly below is 1

{"SUBSTANCE": "15351 (antisense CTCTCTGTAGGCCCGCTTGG; sugars from the 5' end e11 d9, [5mC] at 1, 3, 5, linkages o10 s9 (s phosphorothioate, o phosphodiester), methylation of C not given here) [compound 15351]", "LABEL CLASS": 1}
{"SUBSTANCE": "15347 (antisense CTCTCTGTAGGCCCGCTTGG; sugars from the 5' end e5 d9 e6, [5mC] at 1, 3, 5, 16, linkages o4 s10 o5 (s phosphorothioate, o phosphodiester), methylation of C not given here) [compound 15347]", "LABEL CLASS": 1}
{"SUBSTANCE": "15345 (antisense e[5mC]*eT*e[5mC]*eT*e[5mC]*eT*eG*eT*eA*eG*eG*e[5mC]*e[5mC]*e[5mC]*eG*e[5mC]*eT*eT*eG*eG) [compound 15345]", "LABEL CLASS": -1}
{"SUBSTANCE": "15346 (antisense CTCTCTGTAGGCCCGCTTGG; sugars from the 5' end e5 d9 e6, [5mC] at 1, 3, 5, 16, all phosphorothioate, methylation of C not given here) [compound 15346]", "LABEL CLASS": 1}
{"SUBSTANCE": "15348 (antisense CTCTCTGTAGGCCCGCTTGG; sugars from the 5' end e11 d9, [5mC] at 1, 3, 5, all phosphorothioate, methylation of C not given here) [compound 15348]", "LABEL CLASS": 1}
{"SUBSTANCE": "15349 (antisense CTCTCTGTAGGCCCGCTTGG; sugars from the 5' end d9 e11, [5mC] at 12, 13, 14, 16, all phosphorothioate, methylation of C not given here) [compound 15349]", "LABEL CLASS": -1}
{"SUBSTANCE": "12539 (antisense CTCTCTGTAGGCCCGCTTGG; DNA, all phosphorothioate, methylation of C not given here) [compound 12539]", "LABEL CLASS": 1}
